B1: H2-Kb / B10 (parent)
chain 1: GQQVQQSPASLVLQEGENAELQCNFSSTATRLQWFYQRPGGSLVSLLSNPSGTKHTGRLTSTTVTKERRGSLHISSSQITDSGTYLCAPGGSNAKLTFGKGTKLSVKS
chain 2: DPKIIQKPKYLVAVTGSEKILICEQYLGHNAMYWYRQSAKKPLEFMFSYSYQKLMDNQTASSRFQPQSSKKNHLDLQITALKPDDSATYFCASSLRGGNNQAPLFGEGTRLSVL
chain 3: not shown
chain 4: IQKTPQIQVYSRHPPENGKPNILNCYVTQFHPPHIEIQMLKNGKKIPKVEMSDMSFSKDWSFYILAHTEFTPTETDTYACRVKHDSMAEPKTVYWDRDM
chain 5: SIINFEKL

Variants of: B1
Test: % of reporter cells activated (NFAT-GFP), raw; further: test concentration or dose not given here
Conditions: with B10; scale: % of reporter cells activated
propertyName: ratio to parent
I'd appreciate a reply containing only the number, no unit.

Q: Any idea what its ratio to parent is? The variant is chain 5 I3N
Result: 0.966

Q: Any idea what its ratio to parent is? The variant is chain 5 I2F
Result: 1.5

Q: Any idea what its ratio to parent is? The variant is chain 5 K7R
Result: 1.17

Q: Any idea what its ratio to parent is? The variant is chain 5 N4K
Result: 1.32

Q: Any idea what its ratio to parent is? The variant is chain 5 K7H
Result: 2.02

Q: Any idea what its ratio to parent is? The variant is chain 5 I3H
Result: 1.53

Q: Any idea what its ratio to parent is? The variant is chain 5 I2L
Result: 0.898

Q: Any idea what its ratio to parent is? The variant is chain 5 N4T
Result: 1.73

Q: Any idea what its ratio to parent is? The variant is chain 5 K7V
Result: 1.37

Q: Any idea what its ratio to parent is? The variant is chain 5 L8S
Result: 0.903

Q: Any idea what its ratio to parent is? The variant is chain 5 N4Y
Result: 2.14

Q: Any idea what its ratio to parent is? The variant is chain 5 K7S
Result: 1.39

Q: Any idea what its ratio to parent is? The variant is chain 5 E6R
Result: 1.9

Q: Any idea what its ratio to parent is? The variant is chain 5 K7C
Result: 1.34

Q: Any idea what its ratio to parent is? The variant is chain 5 S1N
Result: 1.71

Q: Any idea what its ratio to parent is? The variant is chain 5 L8F
Result: 1.03

Q: Any idea what its ratio to parent is? The variant is chain 5 S1K
Result: 1.53

Q: Any idea what its ratio to parent is? The variant is chain 5 I3D
Result: 0.864

Q: Any idea what its ratio to parent is? The variant is chain 5 S1R
Result: 0.627

Q: Any idea what its ratio to parent is? The variant is chain 5 S1C
Result: 1.07

Q: Any idea what its ratio to parent is? The variant is chain 5 S1W
Result: 1.07

Q: Any idea what its ratio to parent is? The variant is chain 5 L8I
Result: 0.769

Q: Any idea what its ratio to parent is? The variant is chain 5 I3R
Result: 0.903

Q: Any idea what its ratio to parent is? The variant is chain 5 F5I
Result: 1.83

Q: Any idea what its ratio to parent is? The variant is chain 5 K7Y
Result: 0.995

Q: Any idea what its ratio to parent is? The variant is chain 5 I2S
Result: 1.22

Q: Any idea what its ratio to parent is? The variant is chain 5 F5P
Result: 1.86

Q: Any idea what its ratio to parent is? The variant is chain 5 I2C
Result: 2.08

Q: Any idea what its ratio to parent is? The variant is chain 5 E6A
Result: 0.973

Q: Any idea what its ratio to parent is? The variant is chain 5 I2H
Result: 0.888

Q: Any idea what its ratio to parent is? The variant is chain 5 I2W
Result: 0.82

Q: Any idea what its ratio to parent is? The variant is chain 5 F5V
Result: 1.02

Q: Any idea what its ratio to parent is? The variant is chain 5 E6P
Result: 0.983

Q: Any idea what its ratio to parent is? The variant is chain 5 I3A
Result: 0.702

Q: Any idea what its ratio to parent is? The variant is chain 5 K7I
Result: 2.29

Q: Any idea what its ratio to parent is? The variant is chain 5 E6N
Result: 0.915

Q: Any idea what its ratio to parent is? The variant is chain 5 N4D
Result: 2.53

Q: Any idea what its ratio to parent is? The variant is chain 5 F5L
Result: 2.41

Q: Any idea what its ratio to parent is? The variant is chain 5 L8W
Result: 0.814

Q: Any idea what its ratio to parent is? The variant is chain 5 L8A
Result: 1.07

Q: Any idea what its ratio to parent is? The variant is chain 5 N4W
Result: 1.66

Q: Any idea what its ratio to parent is? The variant is chain 5 L8K
Result: 1.12

Q: Any idea what its ratio to parent is? The variant is chain 5 I3F
Result: 0.897

Q: Any idea what its ratio to parent is? The variant is chain 5 N4A
Result: 1.86

Q: Any idea what its ratio to parent is? The variant is chain 5 I3G
Result: 1.61

Q: Any idea what its ratio to parent is? The variant is chain 5 F5Y
Result: 1.41

Q: Any idea what its ratio to parent is? The variant is chain 5 S1V
Result: 1.15

Q: Any idea what its ratio to parent is? The variant is chain 5 K7P
Result: 1.37

Q: Any idea what its ratio to parent is? The variant is chain 5 I2E
Result: 1.27

Q: Any idea what its ratio to parent is? The variant is chain 5 E6L
Result: 1.28

Q: Any idea what its ratio to parent is? The variant is chain 5 K7M
Result: 2.2

Q: Any idea what its ratio to parent is? The variant is chain 5 I3P
Result: 0.949

Q: Any idea what its ratio to parent is? The variant is chain 5 E6K
Result: 1.31

Q: Any idea what its ratio to parent is? The variant is chain 5 I3L
Result: 1.93

Q: Any idea what its ratio to parent is? The variant is chain 5 F5C
Result: 1.1

Q: Any idea what its ratio to parent is? The variant is chain 5 I3M
Result: 1.2

Q: Any idea what its ratio to parent is? The variant is chain 5 S1E
Result: 0.864

Q: Any idea what its ratio to parent is? The variant is chain 5 E6I
Result: 0.763

Q: Any idea what its ratio to parent is? The variant is chain 5 E6D
Result: 1.26

Q: Any idea what its ratio to parent is? The variant is chain 5 E6C
Result: 1.72

Q: Any idea what its ratio to parent is? The variant is chain 5 F5T
Result: 0.847

Q: Any idea what its ratio to parent is? The variant is chain 5 K7L
Result: 1.85

Q: Any idea what its ratio to parent is? The variant is chain 5 N4S
Result: 1.01

Q: Any idea what its ratio to parent is? The variant is chain 5 L8M
Result: 0.831

Q: Any idea what its ratio to parent is? The variant is chain 5 N4I
Result: 1.8

Q: Any idea what its ratio to parent is? The variant is chain 5 K7D
Result: 1.09

Q: Any idea what its ratio to parent is? The variant is chain 5 N4C
Result: 2.85

Q: Any idea what its ratio to parent is? The variant is chain 5 S1G
Result: 0.831

Q: Any idea what its ratio to parent is? The variant is chain 5 E6V
Result: 1.44

Q: Any idea what its ratio to parent is? The variant is chain 5 L8G
Result: 0.683

Q: Any idea what its ratio to parent is? The variant is chain 5 N4H
Result: 1.88

Q: Any idea what its ratio to parent is? The variant is chain 5 F5R
Result: 1.1

Q: Any idea what its ratio to parent is? The variant is chain 5 N4L
Result: 1.05

Q: Any idea what its ratio to parent is? The variant is chain 5 L8H
Result: 0.966

Q: Any idea what its ratio to parent is? The variant is chain 5 I2K
Result: 1.71

Q: Any idea what its ratio to parent is? The variant is chain 5 S1H
Result: 1.08

Q: Any idea what its ratio to parent is? The variant is chain 5 I3S
Result: 1.22

Q: Any idea what its ratio to parent is? The variant is chain 5 F5W
Result: 1.03

Q: Any idea what its ratio to parent is? The variant is chain 5 F5M
Result: 1.49

Q: Any idea what its ratio to parent is? The variant is chain 5 E6M
Result: 1.2

Q: Any idea what its ratio to parent is? The variant is chain 5 F5H
Result: 1.27

Q: Any idea what its ratio to parent is? The variant is chain 5 E6G
Result: 1.53

Q: Any idea what its ratio to parent is? The variant is chain 5 N4R
Result: 1.37

Q: Any idea what its ratio to parent is? The variant is chain 5 F5S
Result: 1.46

Source listed as paper PMC11480844.
